Assay: human bioavailability comparison study, Tablet Formulation 9 vs co-administered single entity products
Format: in vivo
Conditions: human, in vivo, Treatment C: two units Tablet Formulation 9b (450 mg Compound I, 100 mg Compound II, 50 mg Compound III); human plasma, fasted; read-out: AUC0-last GM
property: AUC(0-t) (µM·h)
Write down the numeric answer in µM·h and omit the unit.

Record CC(C)OC(=O)[C@@H](C)NP(=O)(OC[C@H]1O[C@@H](n2ccc(=O)[nH]c2=O)[C@](C)(Cl)[C@@H]1O)Oc1ccccc1 (stereo partly shown) . Reported AUC(0-t): 3.48

* * *

Assay: human bioavailability comparison study, Tablet Formulation 9 vs co-administered single entity products
Type: in vivo
Settings: human, in vivo, Treatment B: two units Tablet Formulation 9a (450 mg Compound I, 100 mg Compound II, 50 mg Compound III); human plasma, fasted; read-out: AUC0-last GM
property: AUC(0-t) (µM·h)
Use µM·h as the unit, but write only the number.

Field AUC(0-t) (entry CC(C)OC(=O)[C@@H](C)NP(=O)(OC[C@H]1O[C@@H](n2ccc(=O)[nH]c2=O)[C@](C)(Cl)[C@@H]1O)Oc1ccccc1 (stereo partly shown) [Compound I] ) reads 3.11

Source: patent US20180228828A1
